Measured PBM binding z-score accompanies every entry in the list below.
# System: RARb homodimer (NR concentration 270 nM)
# ASSAY METHOD TEXT: PBM binding z-score (relative to random genomic background probes); higher = stronger binding; sequences stand for … in GC…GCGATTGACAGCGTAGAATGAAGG

Asked: PBM binding z-score for `TTACCAAGGCGAAAGGTCGTTGATGCACGCCTTG` ?
Given back: 1.7

Asked: PBM binding z-score for `CGAACTAGGTCATTGACAGGCCAGTGAATAGTAA` ?
Given back: 2.44

Asked: PBM binding z-score for `TGTCAAAGTTCAAAGTTAACGTAAGTATCCACAC` ?
Given back: 3.88

Asked: PBM binding z-score for `CGAACTAGGTCAGAACAGGACAGTAAAGGATGAT` ?
Given back: 2

Asked: PBM binding z-score for `CGTCCAAGGTCAATGCCAGGTCAGTGAAAGCATT` ?
Given back: 4.92

Asked: PBM binding z-score for `ACTTACGGGTCAACGAGGTTAGAGCACGCGTATA` ?
Given back: 3.62

Asked: PBM binding z-score for `GCTCGGAGGGCAAGGTCAGAGCTTTGTCCGTAGA` ?
Given back: 3.27

Asked: PBM binding z-score for `ATATGTACGTTAGCTGGGGTCATTCAGACTAGGC` ?
Given back: 3.2

Asked: PBM binding z-score for `CCTTACGGGTCACGAGGCTATAGCACGACGAGCG` ?
Given back: 3.24

Asked: PBM binding z-score for `TTCCCAAGGTGAAAGGTCGTTGATGCACGCCTTG` ?
Given back: 3.14

Asked: PBM binding z-score for `CGTCCAAGGTCATAGCAGGTCAGTGAAGACAGAT` ?
Given back: 4.65

Asked: PBM binding z-score for `ACTAGCAGGCCAAGGGTCACCCAAGATTAGTCCG` ?
Given back: 3.96

Asked: PBM binding z-score for `GCTATTAGTTGAGAGGGCAACCGAATGATTCTCG` ?
Given back: 1.14

Asked: PBM binding z-score for `GCTTTTAGTTGAAAGGGCAACCGAATGATTCTCG` ?
Given back: 1.78

Asked: PBM binding z-score for `TCTAGTTGGTCACGAAGGTCACACACGACGGGTA` ?
Given back: 4.07

Asked: PBM binding z-score for `CAAACTAGGTCAAAGGTGAAAGTCGAGCCAACCA` ?
Given back: 3.44

Asked: PBM binding z-score for `TCTGCTAGGTCAACGATGGTCAGCCAATCTGCTA` ?
Given back: 3.23

Asked: PBM binding z-score for `CCTAGCAGGCCAGGGTCACTAAAGCATTTCGCTT` ?
Given back: 2.69

Asked: PBM binding z-score for `TCATATAGGTAAATGCTTGGTGAAAGTCCGATCT` ?
Given back: 0.222

Asked: PBM binding z-score for `TCGAGGAGGTTACCAATGGGGCATTCAGCTTTCT` ?
Given back: 1.69

Asked: PBM binding z-score for `GCGACTGGGGCAAAGCAGGTTACCTTAAGGTTGG` ?
Given back: 0.957
